meta.source: patent US11897851B2

- MEASURED ON: UniProtKB P43220
- Sequence (P43220 24-463, species assumed): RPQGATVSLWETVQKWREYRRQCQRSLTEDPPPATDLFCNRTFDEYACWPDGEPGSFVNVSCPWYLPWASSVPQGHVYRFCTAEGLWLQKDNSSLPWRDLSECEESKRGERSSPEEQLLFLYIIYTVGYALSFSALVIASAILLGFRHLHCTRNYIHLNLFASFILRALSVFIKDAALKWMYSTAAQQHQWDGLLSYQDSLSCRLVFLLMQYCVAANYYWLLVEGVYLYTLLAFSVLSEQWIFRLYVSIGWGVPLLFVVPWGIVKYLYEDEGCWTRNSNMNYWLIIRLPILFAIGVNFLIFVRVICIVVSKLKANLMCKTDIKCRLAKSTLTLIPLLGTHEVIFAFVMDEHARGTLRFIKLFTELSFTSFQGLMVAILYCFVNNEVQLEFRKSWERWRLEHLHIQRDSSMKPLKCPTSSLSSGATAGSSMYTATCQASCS
- PROTOCOL: GLP-1R agonist cAMP stimulation assay (HEK293/GLP1R/CRE-LUC cells, Cisbio cAMP dynamic 2 kit);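 also: compounds tested in half-log serial dilution, cAMP detected with cAMP-d2 and anti-cAMP cryptate antibody reagents after 1 h at room temperature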
- CONDITIONS: HEK293/CRE-Luc cell line stably expressing the GLP-1 Receptor; 1000 cells/well; 30 min at 37° C.; 0.5 mM IBMX, 0.1% BSA; read-out: GLP1R cAMP Stimulation DR: EC50
Entries and their measured EC50 follow.
ENDPOINT NAME: EC50 (nM)

# COMPOUND, MEASURED ON, DISPLAY UNIT, LIMIT OPERATOR, VALUE MEASURED
records = [
    ("CC1(c2ccc(Cl)cc2F)Oc2cccc(C3CCN(Cc4ncc(/C=C/C(=O)O)n4CC4(F)COC4)CC3)c2O1 (stereo not shown)", "UniProtKB P43220", "nM", "=", 0.26),
    ("C/C(=C\\c1cnc(CN2CCC(c3cccc4c3O[C@@](C)(c3ccc(Cl)cc3)O4)CC2)n1C[C@@H]1CCO1)C(=O)O [Compound 134a]", "UniProtKB P43220", "nM", "=", 0.21),
    ("O=C(O)/C=C/c1nnc(CN2CCC(c3cccc(OCc4ccc(Cl)cc4F)n3)CC2)n1CC1CCCO1 (stereo not shown)", "UniProtKB P43220", "nM", "=", 0.88),
    ("O=C(O)/C=C/c1cnc(CN2CCC(c3cccc4c3OC[C@@H](c3ccc(Cl)cc3)O4)CC2)n1C[C@@H]1CCO1 [Compound 116a]", "UniProtKB P43220", "nM", "=", 0.71),
    ("COCC/C(=C\\c1cnc(CN2CCC(c3cccc(OCc4ccc(Cl)cc4F)n3)CC2)n1C[C@@H]1CCO1)C(=O)O [Compound 216a]", "UniProtKB P43220", "nM", "=", 4.4),
    ("CCn1cncc1Cn1c(/C=C/C(=O)O)nnc1CN1CCC(c2cccc(OCc3ccc(Cl)cc3F)n2)CC1", "UniProtKB P43220", "nM", "=", 0.0048),
    ("CCOCCn1c(/C=C/C(=O)O)cnc1CN1CCC(c2cccc3c2OC(C)(c2ccc(Cl)cc2F)O3)CC1 (stereo not shown)", "UniProtKB P43220", "nM", "=", 0.019),
    ("COCCc1cc(-c2noc(=O)[nH]2)cnc1CN1CCC(c2cccc3c2OC(C)(c2ccc(Cl)cc2F)O3)CC1 (stereo not shown)", "UniProtKB P43220", "nM", "=", 7.7),
    ("CCc1ncsc1Cn1c(/C=C/C(=O)O)cnc1CN1CCC(c2cccc3c2OC(C)(c2ccc(Cl)cc2F)O3)CC1 (stereo not shown)", "UniProtKB P43220", "nM", "=", 0.22),
    ("O=C(O)/C=C/c1cnc(CN2CCC(c3cccc4c3OC[C@@H](c3ccc(Cl)cc3)O4)CC2)n1Cc1ccno1 [Compound 187a]", "UniProtKB P43220", "nM", ">", 1000),
]
